Sourced from ChEMBL document CHEMBL4765230

target: Phosphatidylinositol 4,5-bisphosphate 3-kinase catalytic subunit delta isoform (Homo sapiens); experiment: Inhibition of PI3Kdelta in human whole blood assessed as reduction in anti-FCepsilonR1 mAb-stimulated basophil activation preincubated for 60 mins followed by anti-FCepsilonR1 mAb stimulation and measured after 25 mins by flow cytometry analysis; assay type: tissue-based
Sequence (O00329 whole entry, canonical isoform): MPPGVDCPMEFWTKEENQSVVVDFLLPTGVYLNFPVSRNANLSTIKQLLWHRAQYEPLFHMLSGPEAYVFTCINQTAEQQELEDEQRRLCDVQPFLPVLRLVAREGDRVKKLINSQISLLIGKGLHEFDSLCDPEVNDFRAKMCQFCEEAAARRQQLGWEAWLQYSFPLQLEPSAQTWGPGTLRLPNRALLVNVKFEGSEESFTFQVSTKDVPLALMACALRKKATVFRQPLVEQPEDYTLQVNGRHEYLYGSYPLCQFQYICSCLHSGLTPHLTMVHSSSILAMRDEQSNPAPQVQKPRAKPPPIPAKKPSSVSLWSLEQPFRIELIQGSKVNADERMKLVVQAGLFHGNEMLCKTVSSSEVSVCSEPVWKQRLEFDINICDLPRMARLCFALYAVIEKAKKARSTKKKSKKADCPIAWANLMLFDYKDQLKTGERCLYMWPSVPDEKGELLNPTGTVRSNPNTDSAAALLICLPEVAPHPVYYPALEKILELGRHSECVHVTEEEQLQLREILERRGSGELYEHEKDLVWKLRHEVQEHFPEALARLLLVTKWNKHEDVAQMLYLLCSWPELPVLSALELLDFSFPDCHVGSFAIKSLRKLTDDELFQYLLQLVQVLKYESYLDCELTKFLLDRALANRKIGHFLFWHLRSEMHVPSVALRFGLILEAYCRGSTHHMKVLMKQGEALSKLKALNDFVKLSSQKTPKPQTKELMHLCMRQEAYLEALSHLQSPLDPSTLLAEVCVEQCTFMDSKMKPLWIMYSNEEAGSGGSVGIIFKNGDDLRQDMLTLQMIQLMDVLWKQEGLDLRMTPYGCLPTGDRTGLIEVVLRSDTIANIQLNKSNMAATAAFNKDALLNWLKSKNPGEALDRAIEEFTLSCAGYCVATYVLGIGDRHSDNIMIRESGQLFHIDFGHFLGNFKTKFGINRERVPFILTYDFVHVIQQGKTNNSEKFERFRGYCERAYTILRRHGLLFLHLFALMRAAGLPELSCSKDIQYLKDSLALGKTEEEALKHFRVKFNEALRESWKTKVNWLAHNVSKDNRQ
pEC50: −log10 of the molar value.
Assay readout: pEC50

Known results for molecules:
| Substance smiles | pEC50 |
| --- | --- |
| C[C@H](Nc1nc(N)nc(N)c1C#N)c1nc2c(F)ccc(Cl)c2c(=O)n1-c1cccnc1 | 9.30 |
| C[C@H](Nc1nc(N)nc(N)c1C#N)c1nc2cccc(Cl)c2c(=O)n1-c1cncc(F)c1 | 8.92 |
| C[C@H](Nc1nc(N)nc(N)c1C#N)c1nc2c(Cl)ccc(Cl)c2c(=O)n1-c1cccnc1 | 9.05 |
| C[C@H](Nc1nc(N)nc(N)c1C#N)c1nc2cccc(Cl)c2c(=O)n1-c1cncc(C2CC2)c1 | 8.15 |
| C[C@H](Nc1nc(N)nc(N)c1C#N)c1nc2cccc(Cl)c2c(=O)n1-c1cccnc1 | 9.05 |

I: C[C@H](Nc1nc(N)nc(N)c1C#N)c1nc2c(F)ccc(Cl)c2c(=O)n1-c1cncc(F)c1
II: C[C@H](Nc1nc(N)nc(N)c1C#N)c1nc2cccc(Cl)c2c(=O)n1-c1cncc(C(F)(F)F)c1
q: When I and II are compared, which has the higher number for pEC50? Please reply using the label of the selected record.
a: I

1: C[C@H](Nc1nc(N)nc(N)c1C#N)c1nc2cccc(Cl)c2c(=O)n1-c1ccccc1
2: COc1cncc(-n2c([C@H](C)Nc3nc(N)nc(N)c3C#N)nc3cccc(Cl)c3c2=O)c1
q: In terms of reported pEC50, does 1 or 2 have the smaller number? Mark your answer with the label of the selected entry.
a: 2

---

experiment: Chemical stability of the compound at pH 2 phosphate buffer assessed as time required for 50% hydrolytic degradation at 100 ug/ml and 40 degreeC by UPLC-UV analysis; assay type: physicochemical; details: dose 100 µg/ml, read-out: Time (converted)
Assay readout: half-life at 100 ug/ml (h)

| Compound | half-life at 100 ug/ml, h |
| --- | --- |
| CC[C@H](Nc1nc(N)nc(N)c1C#N)c1nc2cccc(Cl)c2c(=O)n1-c1cccnc1 | 4.3 |
| CC[C@H](Nc1nc(N)nc(N)c1C#N)c1nc2c(F)ccc(Cl)c2c(=O)n1-c1cccnc1 | 19 |
| N#Cc1c(N)nc(N)nc1N[C@H](c1nc2cccc(Cl)c2c(=O)n1-c1cccnc1)C1CC1 | 3.6 |
| Cc1ccncc1-n1c([C@H](C)Nc2nc(N)nc(N)c2C#N)nc2cccc(Cl)c2c1=O (stereo in doubt; 25) | 23 |
| C[C@H](Nc1nc(N)nc(N)c1C#N)c1nc2cccc(Cl)c2c(=O)n1-c1cccnc1 | 2.7 |
| N#Cc1c(N)nc(N)nc1N[C@H](c1nc2c(F)ccc(Cl)c2c(=O)n1-c1cccnc1)C1CC1 | 20 |

A: Cc1ncccc1-n1c([C@H](C)Nc2nc(N)nc(N)c2C#N)nc2cccc(Cl)c2c1=O (stereo in doubt; 23)
B: C[C@H](Nc1nc(N)nc(N)c1C#N)c1nc2cccc(Cl)c2c(=O)n1-c1cncc(F)c1
q: Between the two listed entries A and B , which has its half-life at 100 ug/ml at the higher number? // output: label of the selected item
a: A
(A: 20 h, B: 3.6 h)
